# measured-target: IKZF2 (Homo sapiens (Human), UniProt Q96SW2+Q9UKS7)
# Sequence (Q9UKS7 whole entry): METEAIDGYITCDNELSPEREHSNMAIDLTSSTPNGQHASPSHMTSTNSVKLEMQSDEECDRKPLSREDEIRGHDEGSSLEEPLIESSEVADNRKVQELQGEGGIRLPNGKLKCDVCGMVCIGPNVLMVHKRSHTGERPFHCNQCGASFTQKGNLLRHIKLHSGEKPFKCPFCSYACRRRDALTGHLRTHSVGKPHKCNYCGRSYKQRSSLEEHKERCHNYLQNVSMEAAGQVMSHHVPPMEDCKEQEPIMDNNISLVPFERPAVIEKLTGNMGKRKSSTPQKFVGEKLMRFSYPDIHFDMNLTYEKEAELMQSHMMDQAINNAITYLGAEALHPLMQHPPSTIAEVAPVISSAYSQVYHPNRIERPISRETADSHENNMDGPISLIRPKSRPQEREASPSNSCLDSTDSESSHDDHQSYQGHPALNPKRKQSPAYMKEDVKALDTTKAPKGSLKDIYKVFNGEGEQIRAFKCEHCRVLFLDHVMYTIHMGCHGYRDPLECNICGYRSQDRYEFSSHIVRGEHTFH
# Sequence (Q96SW2 whole entry): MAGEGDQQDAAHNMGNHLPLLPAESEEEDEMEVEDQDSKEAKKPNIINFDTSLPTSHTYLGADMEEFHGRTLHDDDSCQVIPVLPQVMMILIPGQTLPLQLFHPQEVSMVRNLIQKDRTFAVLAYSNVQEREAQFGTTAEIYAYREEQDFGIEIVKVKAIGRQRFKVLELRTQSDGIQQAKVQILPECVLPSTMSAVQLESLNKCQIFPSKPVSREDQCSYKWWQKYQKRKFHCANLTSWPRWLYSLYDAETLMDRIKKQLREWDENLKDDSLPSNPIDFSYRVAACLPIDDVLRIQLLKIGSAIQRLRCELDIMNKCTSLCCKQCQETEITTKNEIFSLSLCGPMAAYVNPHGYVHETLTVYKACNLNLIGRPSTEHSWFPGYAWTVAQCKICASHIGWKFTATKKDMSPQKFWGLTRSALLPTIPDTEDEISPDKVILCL
# Sequence (Q16531 whole entry partner): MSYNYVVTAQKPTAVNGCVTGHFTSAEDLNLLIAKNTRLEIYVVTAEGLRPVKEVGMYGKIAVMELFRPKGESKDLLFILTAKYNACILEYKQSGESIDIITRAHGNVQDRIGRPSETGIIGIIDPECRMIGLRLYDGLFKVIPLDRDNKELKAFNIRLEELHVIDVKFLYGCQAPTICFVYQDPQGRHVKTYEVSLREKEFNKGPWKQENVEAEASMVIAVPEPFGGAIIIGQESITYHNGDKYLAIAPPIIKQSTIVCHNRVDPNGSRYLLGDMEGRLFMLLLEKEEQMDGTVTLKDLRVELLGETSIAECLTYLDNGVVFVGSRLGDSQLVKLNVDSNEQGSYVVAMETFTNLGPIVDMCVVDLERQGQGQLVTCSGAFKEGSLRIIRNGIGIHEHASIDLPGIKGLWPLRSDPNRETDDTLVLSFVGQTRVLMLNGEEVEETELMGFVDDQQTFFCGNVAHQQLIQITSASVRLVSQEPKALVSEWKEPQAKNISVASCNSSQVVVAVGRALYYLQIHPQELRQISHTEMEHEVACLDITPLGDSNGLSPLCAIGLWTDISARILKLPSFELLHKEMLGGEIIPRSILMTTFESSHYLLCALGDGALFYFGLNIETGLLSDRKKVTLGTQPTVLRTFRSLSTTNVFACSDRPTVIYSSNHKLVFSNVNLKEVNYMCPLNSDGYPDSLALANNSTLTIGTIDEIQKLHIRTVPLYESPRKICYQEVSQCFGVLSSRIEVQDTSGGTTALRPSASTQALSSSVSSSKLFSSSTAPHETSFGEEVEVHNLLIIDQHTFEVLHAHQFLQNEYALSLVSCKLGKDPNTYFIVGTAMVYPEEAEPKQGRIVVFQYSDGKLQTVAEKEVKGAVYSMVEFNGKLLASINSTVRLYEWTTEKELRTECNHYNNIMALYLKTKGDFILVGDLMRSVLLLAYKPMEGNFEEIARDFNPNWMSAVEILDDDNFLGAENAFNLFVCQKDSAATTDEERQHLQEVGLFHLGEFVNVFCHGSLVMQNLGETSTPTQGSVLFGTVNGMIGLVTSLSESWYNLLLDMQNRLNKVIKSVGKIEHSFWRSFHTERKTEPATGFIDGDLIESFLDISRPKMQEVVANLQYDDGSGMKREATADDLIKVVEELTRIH
# experiment: IKZF2 HiBiT Assay (Jurkat-IKZF2-HiBiT cell line)
# Format: cell-based
# details: Jurkat-IKZF2-HiBiT cells, 24 hours; read-out: HiBit assay degradation analysis Dmax
Below, each of the compounds is paired with its reported Dmax value.

| compound | Dmax |
| --- | --- |
| O=C1CC[C@H](N2Cc3c(ccc4c3OCC43CCN(C4Cc5ccccc5C4)CC3)C2=O)C(=O)N1 [Compound A275] | 40 to 60% |
| COc1cc(CN2CCC3(CC2)COc2c3ccc3c2CN([C@H]2CCC(=O)NC2=O)C3=O)cc(-c2cnn(C3COC3)c2)c1 [Compound A277] | > 80% |
| O=C1CCC(N2Cc3c(ccc4c3OCC43CCN(Cc4ccc(Cl)c5ccccc45)CC3)C2=O)C(=O)N1 (stereo not shown) [Compound A37] | 40 to 60% |
| O=C1CCC(N2Cc3c(ccc4c3OCC43CCN(Cc4coc(-c5ccccc5)n4)CC3)C2=O)C(=O)N1 (stereo not shown) [Compound A83] | < 40% |
| O=C1CCC(N2Cc3c(ccc4c3OCC43CCN(Cc4ccnc5[nH]ccc45)CC3)C2=O)C(=O)N1 (stereo not shown) [Compound A73] | 40 to 60% |
| O=C1CCC(N2Cc3c(ccc4c3OCC43CCN(Cc4ccnn4C4CCOCC4)CC3)C2=O)C(=O)N1 (stereo not shown) [Compound A255] | < 40% |
| Cn1ncc2cc(F)c(CN3CCC4(CC3)COc3c4ccc4c3CN(C3CCC(=O)NC3=O)C4=O)cc21 (stereo not shown) [Compound A140] | 40 to 60% |

====

The following molecules are shown together with reported DC50 values.
# measured-target: IKZF2 (Homo sapiens (Human), UniProt Q96SW2+Q9UKS7)
# experiment: IKZF2 HiBiT Assay (Jurkat-IKZF2-HiBiT cell line)
# Format: cell-based
# details: Jurkat-IKZF2-HiBiT cells, 24 hours; read-out: HiBit assay degradation analysis DC50

| molecule | DC50 |
| --- | --- |
| CCc1ccc(CN2CCC3(CCOc4c3ccc3c4CN(C4CCC(=O)NC4=O)C3=O)CC2)cc1 (stereo not shown) | > 500 nM |
| Cn1cc(CN2CCC3(CC2)COc2c3ccc3c2CN(C2CCC(=O)NC2=O)C3=O)c(Cl)n1 (stereo not shown) | > 500 nM |
| O=C1CCC(N2Cc3c(ccc4c3OCC43CCN(Cc4cccc5c4OCO5)CC3)C2=O)C(=O)N1 (stereo not shown) | > 500 nM |
| O=C1CCC(N2Cc3c(ccc4c3OCC43CCN(Cc4ccc5cn[nH]c5c4)CC3)C2=O)C(=O)N1 (stereo not shown) | < 50 nM |
| O=C1CCC(N2Cc3c(ccc4c3OCC43CCN(Cc4ccc5ccn(Cc6cccnc6)c5c4)CC3)C2=O)C(=O)N1 (stereo not shown) | 200 to 500 nM |
| O=C1CCC(N2Cc3c(ccc4c3OCC43CCN(Cc4ccn(-c5ccc(F)cc5)n4)CC3)C2=O)C(=O)N1 (stereo not shown) | > 500 nM |
| O=C1CCC(N2Cc3c(ccc4c3OCC43CCN(Cc4ncn(-c5ccccc5)n4)CC3)C2=O)C(=O)N1 (stereo not shown) | > 500 nM |
| Cc1nn(C)cc1-c1cccc(CN2CCC3(CC2)COc2c3ccc3c2CN([C@H]2CCC(=O)NC2=O)C3=O)c1 | 50 to 200 nM |
| Cn1cc(-c2cccc(CN3CCC4(CC3)COc3c4ccc4c3CN(C3CCC(=O)NC3=O)C4=O)c2)cn1 (stereo not shown) | < 50 nM |
| O=C1CC[C@H](N2Cc3c(ccc4c3OCC43CCN(Cc4cccc(-c5cnn(CCF)c5)c4)CC3)C2=O)C(=O)N1 | < 50 nM |
| O=C1CCC(N2Cc3c(ccc4c3OCC43CCN(Cc4cccc5ccsc45)CC3)C2=O)C(=O)N1 (stereo not shown) | 50 to 200 nM |
| O=C1CCC(N2Cc3c(ccc4c3OCC43CCN(Cc4cccc5ccnn45)CC3)C2=O)C(=O)N1 (stereo not shown) | > 500 nM |
| O=C1CC[C@H](N2Cc3c(ccc4c3OCC43CCN(Cc4cccc(-c5cnn(C6CC6)c5)c4)CC3)C2=O)C(=O)N1 | < 50 nM |
| O=C1CC[C@H](N2Cc3c(ccc4c3OCC43CCN(Cc4ccc5cn(C(F)F)nc5c4)CC3)C2=O)C(=O)N1 | < 50 nM |
| O=C1CCC(N2Cc3c(ccc4c3OCC43CCN(Cc4ccc5c(c4)OC(F)(F)O5)CC3)C2=O)C(=O)N1 (stereo not shown) | > 500 nM |
| CN(C)C(=O)c1ccc(CN2CCC3(CC2)COc2c3ccc3c2CN(C2CCC(=O)NC2=O)C3=O)cc1 (stereo not shown) | > 500 nM |
| O=C1CCC(N2Cc3c(ccc4c3OCC43CCN(Cc4cnc5c(c4)CCCC5)CC3)C2=O)C(=O)N1 (stereo not shown) | > 500 nM |
| O=C1CC[C@H](N2Cc3c(ccc4c3OCC43CCN(C4Cc5ccccc5C4)CC3)C2=O)C(=O)N1 | > 500 nM |
| O=C1CCC(N2Cc3c(ccc4c3OCC43CCN(Cc4ccc5occc5c4)CC3)C2=O)C(=O)N1 (stereo not shown) | < 50 nM |
| O=C1CCC(N2Cc3c(ccc4c3OCC43CCN(Cc4ccc5c(Cl)n[nH]c5c4)CC3)C2=O)C(=O)N1 (stereo not shown) | 50 to 200 nM |
| O=C1CCC(N2Cc3c(ccc4c3OCC43CCN(CC4CCCC(c5ccccc5)C4)CC3)C2=O)C(=O)N1 (stereo not shown) | 200 to 500 nM |
| O=C1CCC(N2Cc3c(ccc4c3OCC43CCN(Cc4ccc(F)c(F)c4)CC3)C2=O)C(=O)N1 (stereo not shown) | > 500 nM |
| Cc1ccc2[nH]ncc2c1CN1CCC2(CC1)COc1c2ccc2c1CN(C1CCC(=O)NC1=O)C2=O (stereo not shown) | < 50 nM |
| O=C1CCC(N2Cc3c(ccc4c3OCC43CCN(CC4(c5ccccc5)CCC4)CC3)C2=O)C(=O)N1 (stereo not shown) | > 500 nM |
| O=C1CCC(N2Cc3c(ccc4c3OCC43CCN(Cc4cnn(S(=O)(=O)c5ccc(Cl)cc5)c4)CC3)C2=O)C(=O)N1 (stereo not shown) | 200 to 500 nM |
| COCCn1ncc2c(CN3CCC4(CC3)COc3c4ccc4c3CN(C3CCC(=O)NC3=O)C4=O)cccc21 (stereo not shown) | > 500 nM |
| COCn1cc(-c2cccc(CN3CCC4(CC3)COc3c4ccc4c3CN([C@H]3CCC(=O)NC3=O)C4=O)c2)cn1 | < 50 nM |
| O=C1CCC(N2Cc3c(ccc4c3OCC43CCN(Cc4ccccc4-n4cccn4)CC3)C2=O)C(=O)N1 (stereo not shown) | > 500 nM |

====

# measured-target: IKZF2 (Homo sapiens (Human), UniProt Q96SW2+Q9UKS7)
# experiment: IKZF2 HiBiT Assay (Jurkat-IKZF2-HiBiT cell line)
# Format: cell-based
# details: Jurkat-IKZF2-HiBiT cells, 24 hours; read-out: HiBit assay degradation analysis DC50
measure: DC50

| compound | measured-target | experimental-value |
| --- | --- | --- |
| O=C1CCC(N2Cc3c(ccc4c3OCC43CCN(Cc4cnn(S(=O)(=O)c5ccccc5F)c4)CC3)C2=O)C(=O)N1 (stereo not shown) | IKZF2 (Homo sapiens (Human), UniProt Q96SW2+Q9UKS7) | 50 to 200 nM |
| O=C1CCC(N2Cc3c(ccc4c3OCC43CCN(CC4CCCc5ccccc54)CC3)C2=O)C(=O)N1 (stereo not shown) | IKZF2 (Homo sapiens (Human), UniProt Q96SW2+Q9UKS7) | > 500 nM |
| O=C1CCC(N2Cc3c(ccc4c3OCC43CCN(Cc4ccnn4C4CCOCC4)CC3)C2=O)C(=O)N1 (stereo not shown) | IKZF2 (Homo sapiens (Human), UniProt Q96SW2+Q9UKS7) | > 500 nM |
| O=C1CCC(N2Cc3c(ccc4c3OCC43CCN(Cc4ncccn4)CC3)C2=O)C(=O)N1 (stereo not shown) | IKZF2 (Homo sapiens (Human), UniProt Q96SW2+Q9UKS7) | > 500 nM |

====

# measured-target: IKZF2 (Homo sapiens (Human), UniProt Q9UKS7)
# experiment: IKZF2 FACS Assay (Jurkat cells)
# Format: cell-based
# details: Jurkat cells, 24 hrs; read-out: IKZF2 FACS degradation DC50
Quick reference: DC50 of the listed items.

| compound | DC50 |
| --- | --- |
| O=C1CC[C@H](N2Cc3c(ccc4c3OC[C@]43CCN(Cc4cccc(-c5cnn(C6COC6)c5)c4)CC3(F)F)C2=O)C(=O)N1 [Compound B53] | < 10 nM |
| Cn1cc(-c2cccc(CN3CCC4(COc5c4ccc4c5CN(C5CCC(=O)NC5=O)C4=O)C(F)(F)C3)c2)cn1 (centres unmarked) [Compound B26] | < 10 nM |
| Cn1cc(-c2cccc(CN3CC[C@]4(COc5c4ccc4c5CN([C@H]5CCC(=O)NC5=O)C4=O)C(F)(F)C3)c2)cn1 [Compound B51] | < 10 nM |
| O=C1CC[C@H](N2Cc3c(ccc4c3OCC43CCN(Cc4cnn(CC5CCOCC5)c4)CC3(F)F)C2=O)C(=O)N1 (some centres unmarked) [Compound B46] | < 10 nM |
| Cn1cc(-c2cccc(CN3CCC4(CC3)COc3c4ccc4c3CN([C@@H]3CCC(=O)NC3=O)C4=O)c2)cn1 [Compound B14] | > 10 nM |
| N#Cc1ccc(-n2cc(CN3CCC4(COc5c4ccc4c5CN([C@H]5CCC(=O)NC5=O)C4=O)C(F)(F)C3)cn2)cc1 (some centres unmarked) [Compound B27] | > 10 nM |
| Cn1cc(-c2cccc(CN3CCC4(CC3)COc3c5c(cc(F)c34)C(=O)N([C@H]3CCC(=O)NC3=O)C5)c2)cn1 [Compound B55] | < 10 nM |
| O=C1CC[C@H](N2Cc3c(ccc4c3OCC43CCN(Cc4cccc(-c5cnn(C6COC6)c5)c4)CC3(F)F)C2=O)C(=O)N1 (some centres unmarked) [Compound B32] | < 10 nM |
